Test system: lipase
experimentSummary: Stability (hydrolysis) in the presence of lipase, HPLC
Assay type: in vitro ADME
measurementSetup: mammalian (lipase; species not named), lipase in aqueous solution; dissolved with a lipase at room temperature at pH=6.9
quantityMeasured: half-life (h)
# value in h; strip the unit string

For the compound CCCCCCCCCC(=O)OCC(O)COC(=O)CC[C@@H](C)[C@H]1CC[C@H]2[C@@H]3[C@H](OC(=O)CCN)C[C@@H]4C[C@H](OC(=O)CCN)CC[C@]4(C)[C@H]3C[C@H](OC(=O)CCN)[C@]12C (stereo partly shown) , give its measured half-life value.
1

---

Tested on: Candida albicans (CA)
experimentSummary: MIC and MFC, broth microdilution, CA (Table 1)
Assay type: cell-based
measurementSetup: Candida albicans, MFC, value in parentheses
quantityMeasured: MBC

{"compound": "CCCCCCCC(=O)OCC(COC(=O)CC[C@@H](C)[C@H]1CC[C@H]2[C@@H]3[C@H](OC(=O)CCN)C[C@@H]4C[C@H](OC(=O)CCN)CC[C@]4(C)[C@H]3C[C@H](OC(=O)CCN)[C@]12C)OC(=O)CCCCCCC (stereo partly shown)", "MBC": "64 µg/mL"}
{"compound": "CCCCCCCCCCCC(=O)OCC(O)COC(=O)CC[C@@H](C)[C@H]1CC[C@H]2[C@@H]3[C@H](OC(=O)CCN)C[C@@H]4C[C@H](OC(=O)CCN)CC[C@]4(C)[C@H]3C[C@H](OC(=O)CCN)[C@]12C (stereo partly shown)", "MBC": "16 µg/mL"}
{"compound": "CCCCCCCCCC(=O)OCC(COC(=O)CC[C@@H](C)[C@H]1CC[C@H]2[C@@H]3[C@H](OC(=O)CCN)C[C@@H]4C[C@H](OC(=O)CCN)CC[C@]4(C)[C@H]3C[C@H](OC(=O)CCN)[C@]12C)OC(=O)CCCCCCCCC (stereo partly shown)", "MBC": "> 100 µg/mL"}

From here, focus on the item given below.
For Candida albicans (CA), give the measured MBC of the entry CCCCCCCCCC(=O)OC[C@@H](O)COC(=O)CC[C@@H](C)[C@H]1CC[C@H]2[C@@H]3[C@H](OC(=O)CCN)C[C@@H]4C[C@H](OC(=O)CCN)CC[C@]4(C)[C@H]3C[C@H](OC(=O)CCN)[C@]12C [CSA-4110R]
8 µg/mL
